Reference source: paper PMC13618202

measurement-name: pIC50
Interpret pIC50 as the negative base-10 log of the concentration measured in mol/L.

pIC50 value, target or system UBA5 (Homo sapiens), for COc1ccc(CNC(=O)CCl)cc1OC [DKM 2-93] : 3.26
